Where these numbers come from: patent US20230399394A1

Target: T1, Human IL-33-his (human, UniProt O95760 112-270, biotinylated with EZ-Link NHS-Biotin where used as IL-33-his-biotin)
T1 construct: Used plain (SPR, cell assays) and biotinylated (ELISA); also called IL-33-his-biotin
T1 sequence: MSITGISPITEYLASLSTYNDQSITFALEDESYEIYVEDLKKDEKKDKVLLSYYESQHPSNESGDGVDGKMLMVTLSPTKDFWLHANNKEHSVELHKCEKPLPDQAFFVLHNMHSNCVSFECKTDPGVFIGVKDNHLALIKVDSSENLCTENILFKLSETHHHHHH
Assay: SPR Biacore 8K, antibody captured on Protein A/G chip, IL-33-his as analyte, 1:1 model
Recorded endpoint: koff (s⁻¹)
Value expressed in s⁻¹; do not type the unit.

Which koff is reported for this binder? 864F3-Hu5 (antibody, human IgG4 S228P, kappa, V domains shown, Humanized; also called humanized antibody 864F3-Hu5) VH: QVQLQESGPGLVKPSETLSLTCTVSGFSLSKYGVHWIRQPPGKGLEWLGVLRAGGTISYNSALMSRLTISEDISKSQVSLKLSSVTAADTAVYYCARDHYYYSSFGGFASWGQGTLVTVSS VL: DIQMTQSPSSLSASVGDRVTITCLASQTIATWLAWYQQKPGKSPKLLIYAATRLADGVPSRFSGSGSGTDFTLTISSLQPEDFATYYCQQLYNTPYTFGQGTKVEIKR 0.000439
